Listed compounds paired with reported normalized growth
assay: chemical genetic growth profiling, strain panel (AID 1159580);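 note: tested at 20 µM; growth read once vehicle control cultures reached saturation at 30 °C; 1 = growth at the plate median or of vehicle wells; lower values mean less growth of the strain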; conditions: S. cerevisiae deletion strains, growth OD, locus YHR129C, strain ARP1, stronger effect = lower value
Among all 5,500 compounds or so, about 2,000 (36%) were called active. About 18% were inconclusive and are not listed. This is one part of the list.
# print the numeric value only

A selection of reference data follows.
compound: CCOC(=O)C1(O)Oc2cc(OC)cc(OC)c2C(=O)C1c1ccccc1 (stereo not given)
normalized growth: 0.993
--
compound: COc1ccc2c(c1)OCc1c-2oc2cc(OC)ccc12
normalized growth: 0.779
--
compound: CCCCCCCCCCCCCCCC[N+](C)(C)C
normalized growth: 0.0524

Please report the recorded normalized growth for "CCCCCCCCCCCCCCCC(=O)OC/C=C(C)/C=C/C=C(C)/C=C/C1=C(C)CCCC1(C)C" .
0.999

Same question for CC1CC2C3CCC4=CC(=O)C=C[C@]4(C)[C@@]3(F)[C@@H](O)C[C@]2(C)[C@@]1(O)C(=O)CO (stereo not given in full) please.
0.993

Same question for "CCOC(=O)C(C)(C)Oc1ccc(Cl)cc1" please.
1

Same question for CO[C@H]1[C@H](O)[C@H](O[C@H]2CC[C@]3(C)C4CC[C@]5(C)C(C6=CC(=O)OC6)CC[C@]5(O)C4CC[C@@H]3C2)O[C@@H](C)[C@@H]1O (stereo not given in full) please.
1.01

Same question for CC(N)CCCC(C)(C)O (stereo not given) please.
1.01

Same question for "CCN(CC)CCNC(=O)c1cc(Br)c(N)cc1OC" please.
1

Same question for CCOC(=O)C(=O)C1(C(=O)OCC)Oc2cc(OC)cc(OC)c2C(=O)C1c1ccccc1 (stereo not given) please.
0.966

###

Listed compounds paired with reported normalized growth
experiment: chemical genetic growth profiling, strain panel (AID 1159580); conditions: S. cerevisiae deletion strains, growth OD, locus YIR030C, strain dcg1, stronger effect = lower value
The campaign covered roughly 5,500 compounds. About 2,000 (36%) were called active. Roughly 18% stayed inconclusive and do not appear here. The list shows a part of the results.
# print the numeric value only

A selection of reference data follows.
compound: Cc1cccc(C)c1OCC(C)N (configuration not stated)
normalized growth: 0.987
--
compound: CC(Oc1ccccc1)C(=O)N[C@@H]1C(=O)N2[C@@H]1SC(C)(C)[C@@H]2C(=O)O (some centres not stated)
normalized growth: 1.02
--
compound: CCOC(=O)C(Cc1ccc(O)cc1)NC(C)=O (configuration not stated)
normalized growth: 0.997
--
compound: CCN(CCO)CCCC(C)Nc1ccnc2cc(Cl)ccc12 (configuration not stated)
normalized growth: 1.01

Please report the recorded normalized growth for "CN(C)c1ccc(C(=C2C=CC(=[N+](C)C)C=C2)c2ccc(N(C)C)cc2)cc1" .
0.493

Same question for "O=C1C=CC(=C(c2ccc(O)cc2)c2ccc(O)cc2)C=C1" please.
0.986

Same question for "c1ccc(N=Nc2ccccc2)cc1" please.
1.04

Same question for ClC1=C(Cl)C2(Cl)C3C(Cl)C=CC3C1(Cl)C2(Cl)Cl (configuration not stated) please.
0.989

Same question for CCN(CC)CCCC(C)Nc1c2ccc(Cl)cc2nc2ccc(OC)cc12 (configuration not stated) please.
0.768

Same question for "NCCSSCCN" please.
1.01

Same question for CCN(CC)CCCC(C)Nc1ccnc2cc(Cl)ccc12 (configuration not stated) please.
1

Same question for "C[C@@H]1[C@H]2[C@H](O[C@@H]3O[C@H](CO)[C@@H](O)[C@H](O)[C@H]3O)OC=C(C(=O)O)[C@H]2C[C@@H]1O" please.
0.995

###

Listed compounds paired with reported normalized growth
test: chemical genetic growth profiling, strain panel (AID 1159580);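 note: tested at 20 µM; growth read once vehicle control cultures reached saturation at 30 °C; 1 = growth at the plate median or of vehicle wells; lower values mean less growth of the strain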; conditions: S. cerevisiae deletion strains, growth OD, locus YDL134C, strain PPH21, stronger effect = lower value
Screen size: about 5,500 compounds; about 2,000 (36%) were called active. Inconclusive results (about 18%) are left out. The list shows a part of the results.
# print the numeric value only

compound: CC(C)(C)C(=O)Nc1ccc(F)cc1
quantity: normalized growth
result: 1.02
--
compound: COc1cc2c(cc1OC)C1C(=O)c3c(cc4c(c3O)C=CC(C)(C)O4)OC1CO2 (stereo not drawn)
quantity: normalized growth
result: 1
--
compound: CCOC(=O)[C@H](CCc1ccccc1)N[C@H]1CCc2ccccc2N(CC(=O)O)C1=O
quantity: normalized growth
result: 0.998
--
compound: Cc1c(O)c(C(=O)CC(C)C)c2oc3c(C(=O)CC(C)C)c(O)c(C)c(O)c3c2c1O
quantity: normalized growth
result: 0.991
--
compound: COc1ccc2c(C)cc(=O)oc2c1
quantity: normalized growth
result: 0.992

Please report the recorded normalized growth for COCCc1ccc(OCC(O)CNC(C)C)cc1 (stereo not drawn) .
1

Same question for "COc1ccc2c(c1)OCc1c-2oc2cc(OC)ccc12" please.
0.908

Same question for "COc1cc2c(cc1OC)[C@@H]1C(=O)c3ccc(O)c(CC=C(C)C)c3O[C@@H]1CO2" please.
0.967

Same question for "COc1cc2c(cc1OC)[C@@H]1C(=O)c3ccc4c(c3O[C@@H]1CO2)C=CC(C)(C)O4" please.
0.99

Same question for "CC(C)(O)[C@@H]1[C@H]2OC(=O)[C@@H]1[C@]1(O)C[C@H]3O[C@]34C(=O)O[C@H]2[C@]14C" please.
1

Same question for "C=C(C)[C@@H]1[C@H]2OC(=O)[C@@H]1[C@]1(O)C[C@H]3O[C@]34C(=O)O[C@H]2[C@]14C" please.
0.988

Same question for "COc1cc(NS(=O)(=O)c2ccc(N)cc2)nc(OC)n1" please.
0.968

Same question for COc1cc(NC(C)CCCN)c2ncccc2c1 (stereo not drawn) please.
1.01

###

experiment: chemical genetic growth profiling, strain panel (AID 1159580);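 note: tested at 20 µM; growth read once vehicle control cultures reached saturation at 30 °C; 1 = growth at the plate median or of vehicle wells; lower values mean less growth of the strain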; conditions: S. cerevisiae deletion strains, growth OD, locus YJR043C, strain POL32, stronger effect = lower value
About 2,000 (36%) of roughly 5,500 compounds were called active. Roughly 18% stayed inconclusive and do not appear here. This is one part of the list.
In plain terms, low normalized growth, meaning strictly below 1, gives condition met, and everything else gives condition not met.

Below are worked cases with known answers.
compound: C=Cc1c2[nH]c(c1C)C=c1[nH]c(c(C)c1C=C)=CC1N=C(C=c3[nH]c(c(C)c3CCC(=O)O)=C2)C(CCC(=O)O)=C1C (stereo unspecified)
category-label: condition met
--
compound: C[N+](C)(C)CCOC(N)=O
category-label: condition not met
--
compound: CN(C)c1ccc(C(=C2C=CC(=[N+](C)C)C=C2)c2ccc(N(C)C)cc2)cc1
category-label: condition met

We now examine a further compound.
Does this compound meet the criterion normalized growth < 1? CC(C[N+](C)(C)C)OC(N)=O (stereo unspecified)
condition not met

###

assay: chemical genetic growth profiling, strain panel (AID 1159580);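 note: tested at 20 µM; growth read once vehicle control cultures reached saturation at 30 °C; 1 = growth at the plate median or of vehicle wells; lower values mean less growth of the strain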; details: S. cerevisiae deletion strains, growth OD, locus YLR371W, strain rom2, stronger effect = lower value
Out of some 5,500 compounds screened, about 2,000 (36%) were called active. About 18% were inconclusive and are not listed. Some of the results follow.
quantity: normalized growth
# print the numeric value only

compound: COc1cc2c(cc1OC)C1C(=O)c3c(OC)cc4c(c3OC1CO2)CCC(C)(C)O4 (centres undefined)
normalized growth: 0.988
//
compound: Cc1cc(O)c(C=O)c(O)c1C(=O)O
normalized growth: 1.01
//
compound: C[C@H]1OC(n2cc(F)c(=O)[nH]c2=O)C(O)[C@@H]1O (some centres undefined)
normalized growth: 0.961

Please report the recorded normalized growth for CCCCCCCCNC(C)C(O)c1ccc(SC(C)C)cc1 (centres undefined) .
0.0595

Same question for CCN(CC)CCCC(C)Nc1c2ccc(Cl)cc2nc2ccc(OC)cc12 (centres undefined) please.
0.93

Same question for "NC(=O)c1ccc[n+]([C@@H]2O[C@H](COP(=O)([O-])OP(=O)(O)OC[C@H]3O[C@@H](n4cnc5c(N)ncnc54)[C@H](O)[C@@H]3O)[C@@H](O)[C@H]2O)c1" please.
0.977

Same question for "O=C(O)c1cc2ccccc2c(Cc2c(O)c(C(=O)O)cc3ccccc23)c1O" please.
0.966

Same question for CCC(C)C(=O)O[C@H]1[C@H](O)C2C(CN3CC(C)CCC3[C@@]2(C)O)C2C[C@]34O[C@]5(O)C(OC(=O)C(C)(O)C(C)O)CC[C@@]3(C)C5C(OC(C)=O)[C@@H](OC(C)=O)C4[C@@]21O (some centres undefined) please.
1

Same question for O=C(O)C1(O)C[C@@H](O)C(O)[C@H](O)C1 (some centres undefined) please.
1.02

Same question for "CCOC(=O)c1c(C)cc(O)c(C)c1O" please.
0.717

Same question for C=Cc1c2[nH]c(c1C)C=c1[nH]c(c(C)c1C=C)=CC1N=C(C=c3[nH]c(c(C)c3CCC(=O)O)=C2)C(CCC(=O)O)=C1C (centres undefined) please.
0.949

Where do these numbers come from? They come from PubChem BioAssay AID1159580.
